Exercise: for every item that follows, state its recorded protein stability index.
measurement protocol: protein stability index of a GFP-peptide fusion (GPS, HEK-293T) (PSI 1-6); higher = more stable;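 further: 24-mer peptide tiles fused after GFP, lentivirally expressed, FACS-sorted into six equal bins by GFP/DsRed ratio, decoded by Illumina sequencing, PSI is the read-weighted mean bin number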
assay conditions: treatment: MLN4924 1 uM, 8 h; c terminus: a fixed tail appended

Memo: YDDDIDDEDEEEEDADCYDDDDSG [UBE2R2] , reported protein stability index: 5.61

Memo: QENYLEYRQVPGSDPARYEFLWGP [MAGEA10] , reported protein stability index: 3.54

Memo: SPEWDTVTPEAKNLINQMLTINPA [CAMK2B] , reported protein stability index: 3.86

Memo: PSSQSSSGGGRDSSSSILRWLPEK [ELOA2] , reported protein stability index: 4.25

Memo: PQRYPACAQMLPPNLSPHAPWNYH [TRAF3IP2] , reported protein stability index: 2.11

Memo: SAAPGHPQDGSYPRQADHDDHECC [KCNA1] , reported protein stability index: 5.6

Memo: VQVENPERFSSAPCLLGSRVFSQG [TRIM35] , reported protein stability index: 3.2

Memo: YVFFEKDFGDMHSYVRSRKRLREE [TRIB1] , reported protein stability index: 2.66

Memo: QCAVLIYTSGTTGIPKGVMLSHDN [ACSBG2] , reported protein stability index: 2.58

Memo: VLRGLARPEHPPPAPTGQDDPQSQ [TMEM175] , reported protein stability index: 5.54

Memo: VWYYCTLTIRESILINNGSRIKGW [TMEM120A] , reported protein stability index: 2.96

Memo: KGGEERKAEGGEEDSLGCLTADTK [IRX6] , reported protein stability index: 5.52

Memo: GIEPLYIKAEPASPDSPKGSSETE [ESRRA] , reported protein stability index: 5.36

----------
measurement protocol: protein stability index of a GFP-peptide fusion (GPS, HEK-293T) (PSI 1-6); higher = more stable
assay conditions: treatment: DMSO; c terminus: a fixed tail appended
Exercise: for every item that follows, state its recorded protein stability index.
Reply with just the number.

Memo: SEKAANDDHSVRVAREDVRESCPP [CPXM2] , reported protein stability index: 5.49

Memo: LRDKTVMIIVAISPKYKQDVEGAE [TRAF3IP2] , reported protein stability index: 2.4

Memo: HDHLTLSVSRPEGRSWPSAPDDSK [PDLIM4] , reported protein stability index: 5.15

Memo: NVKTLKDGKPFPELVLEQQLDREA [PCDHGC5] , reported protein stability index: 5.07

Memo: HQDVDLVCINLPPPLTRQIAVKTL [GFOD1] , reported protein stability index: 2.47

Memo: TIGASFMTKTVQYQNELHKFLIWD [RAB22A] , reported protein stability index: 2.5

Memo: EMRQALQALLKENRLLQEENRTLQ [CBY2] , reported protein stability index: 2.53

Memo: NGLNARMMHGGSYSLTTSSTHKRS [RAB40B] , reported protein stability index: 4.28

Memo: SVAGWSLFSLNVISLTCVSVAFAV [SLC19A2] , reported protein stability index: 2.92

Memo: VKVIRDFTTNKCKGFGFVTMTNYD [ELAVL3] , reported protein stability index: 2.35

Memo: LGSFESPANSETSDLTLYLVVAVA [PCDHGA10] , reported protein stability index: 2.66

Memo: FRQFGYQDSPGPREAVSQLRELCR [ZNF24] , reported protein stability index: 3.37

Memo: WADAAGEAVPEGPDGGGPWLEDEP [ZSWIM9] , reported protein stability index: 5.62

----------
Exercise: for every item that follows, state its recorded protein stability index.
measurement protocol: protein stability index of a GFP-peptide fusion (GPS, HEK-293T) (PSI 1-6); higher = more stable
assay conditions: treatment: MLN4924 1 uM, 8 h; c terminus: a fixed tail appended
Reply with just the number.

Memo: SNLSYHLEKNHPEEFCEFVKSNTE [ZBED1] , reported protein stability index: 4.69

Memo: INSIIHNPRAPVIIYKQTKGGVQN [CEP70] , reported protein stability index: 3.34

Memo: DGLFDNMPDYMILQELKKLKNSNY [PPTC7] , reported protein stability index: 2.85

Memo: QTGGDVNVEMDAAPGVDLSRILNE [KRT16] , reported protein stability index: 5.18

Memo: RESRILFSTWNLDHIIEKKRTIIP [DFFB] , reported protein stability index: 2.52

Memo: FRVVDCDQFTQVFLESQGIELNPP [EFHC1] , reported protein stability index: 2.27

Memo: YEFHLEFLDLVKPEPVYKLTQRQV [HACD3] , reported protein stability index: 2.12

Memo: PYIQLPSHSNITGIVEVILGETKA [TRIB1] , reported protein stability index: 2.67

Memo: TRGRGGLLRDHIPRGKEELESLGG [MOG] , reported protein stability index: 4.95

Memo: EMRQALQALLKENRLLQEENRTLQ [CBY2] , reported protein stability index: 2.65

Memo: GLDYLHSKCKIIHTDIKPENILMC [SRPK2] , reported protein stability index: 1.9

Memo: AFGNPKFALQGLPLNCAPCPRRSE [IRX6] , reported protein stability index: 4.08

Memo: PDLRSLFSRAGISEAQLTDAETSK [WAS] , reported protein stability index: 5

Memo: VAVKKKLQLYFWKDREFHELQGDF [VPS39] , reported protein stability index: 2.06

Memo: ALLITLIVVATLPIPVVFVLRHFH [SLC6A17] , reported protein stability index: 2.33

Memo: LGLTNQSRRYNRKEPAEFNGDGAF [ZNF649] , reported protein stability index: 4.26

Memo: ANGSEIHKHVHFSSSFTSIASEWF [SLC22A15] , reported protein stability index: 2.39

Memo: QSSGLIRHQRIHTGERPYECNECG [ZSCAN9] , reported protein stability index: 4

Memo: DKRGETTSASLLNAGLSHTEYQIV [SLC2A12] , reported protein stability index: 3.91

Memo: FNYELVKSWLNGFRPKDQTSVGMS [SLC25A39] , reported protein stability index: 1.97

Memo: PVLRFDALWQVLARDCFATGRHYW [TRIM14] , reported protein stability index: 3.21

Memo: GKTTIILRCLDRDEPSKPTLALEY [DYNC2LI1] , reported protein stability index: 2.05

Memo: AGKEAMTSDGYTALHLAARNGHLA [RIPK4] , reported protein stability index: 3.85

Memo: TLAQFPETLLGDPEKRTQYFDPLR [KCNA4] , reported protein stability index: 3.6

Memo: PGAPGMPPGIPPLMPGVPPLMPGM [ZNF207] , reported protein stability index: 3.62

Memo: AQVRKLELERAQHELLLGSLQQQH [FBF1] , reported protein stability index: 3.71

Memo: TCKASHITSSVFPSASLGKASSRK [FBXO34] , reported protein stability index: 3.55

----------
measurement protocol: protein stability index of a GFP-peptide fusion (GPS, HEK-293T) (PSI 1-6); higher = more stable
assay conditions: treatment: MLN4924 1 uM, 8 h; c terminus: a fixed tail appended
Response key: 1 means protein stability index >= 3; 0 means protein stability index < 3.

Asked: Does the reported protein stability index for NESTVCLMSYERRQILHLITMMAL [TENT5D] fall at or above the 3 mark?
Given back: 0

Asked: Does the reported protein stability index for PSTICFGQGAARGFKSNKKKTKQC [ZNF511] fall at or above the 3 mark?
Given back: 1

Asked: Does the reported protein stability index for SSGPARGIAIVSVLVILISIVIFC [KCNA3] fall at or above the 3 mark?
Given back: 0

Asked: Does the reported protein stability index for NHLLHHFVIGHLKGAPASWWNHMH [FADS1] fall at or above the 3 mark?
Given back: 0

Asked: Does the reported protein stability index for DLHCVLVTNPHSSQWKDPALSQLI [GADD45A] fall at or above the 3 mark?
Given back: 0

Asked: Does the reported protein stability index for INNGDFEAYTKICDPGLTAFEPEA [CAMK2D] fall at or above the 3 mark?
Given back: 1

Asked: Does the reported protein stability index for NPEEIRGGGLLKYSNLLVRDFRPT [TENT5C] fall at or above the 3 mark?
Given back: 1

Asked: Does the reported protein stability index for KTTGLEEAAEAETAKDNGEAEDQE [SRPK2] fall at or above the 3 mark?
Given back: 1

Asked: Does the reported protein stability index for QAQKCYRDLALVSRDGMNIVLNKI [INTS3] fall at or above the 3 mark?
Given back: 0

Asked: Does the reported protein stability index for KVKKLKNLKTLDSKPGVYTSYKPY [DENND6A] fall at or above the 3 mark?
Given back: 0

Asked: Does the reported protein stability index for LEEGENPVPAFQSDGTDEPESKEP [SMG5] fall at or above the 3 mark?
Given back: 1

Asked: Does the reported protein stability index for KPHRLGDSEHEPVYRAELVGELNG [PWWP2B] fall at or above the 3 mark?
Given back: 1

Asked: Does the reported protein stability index for LREIAFTRQLHEKTSQLSYYYMGF [ATE1] fall at or above the 3 mark?
Given back: 0

Asked: Does the reported protein stability index for DPDINMHPFFFALGKILSVELGKQ [FADS1] fall at or above the 3 mark?
Given back: 0

Asked: Does the reported protein stability index for PRLWTTCRDGEVLLRLSKHGPGHE [ACSBG2] fall at or above the 3 mark?
Given back: 0

Asked: Does the reported protein stability index for GTDGYMPRELASMSLVLHGNNLLV [KLHDC10] fall at or above the 3 mark?
Given back: 0

Asked: Does the reported protein stability index for HQDVDLVCINLPPPLTRQIAVKTL [GFOD1] fall at or above the 3 mark?
Given back: 0

Asked: Does the reported protein stability index for ECGKRFLRSSDLYRHQRLHTGERP [ZNF449] fall at or above the 3 mark?
Given back: 1

Asked: Does the reported protein stability index for EGHCVIQVDVGDVNDNAPEVLLAS [PCDHGC5] fall at or above the 3 mark?
Given back: 1

Asked: Does the reported protein stability index for VTDKTLLICKYDFIMLSCVQLQRI [TPRG1] fall at or above the 3 mark?
Given back: 1

Asked: Does the reported protein stability index for QRVVYLEGCGPPLRRWLRANLAAS [TSPAN10] fall at or above the 3 mark?
Given back: 0

Asked: Does the reported protein stability index for LECEINTYRSLLESEDCKLPSNPC [KRT33B] fall at or above the 3 mark?
Given back: 1

Asked: Does the reported protein stability index for LRTLFTDLFEKKGYTFDYAYDWVG [CSNK1G1] fall at or above the 3 mark?
Given back: 0

Asked: Does the reported protein stability index for QVKLYDIEQQQIRNALENIRKEMK [CRYL1] fall at or above the 3 mark?
Given back: 1
